The origin of these recorded values is patent US12331026B2.

molecular target: CDK2 (Homo sapiens); construct: endogenous in cells; host or cells: OVCAR3 cells; experiment: Phospho-RB measurement in OVCAR3 cells (HTRF phospho-RB S807/811); type: cell-based; settings: phosphorylation of RB protein at S807/811, HTRF, 24 h compound treatment, 0.3 to 10,000 nM, read-out: pRb (uM)
EXPERIMENTAL READOUT: IC50 (µM)

{"MOLECULE": "O=S1(=O)CC2(CC(Nc3nccc(-c4sc(C56CC(CO)(C5)C6)nc4-c4cccc(NS(=O)(=O)c5c(F)cccc5F)c4F)n3)C2)C1 [Example 34]", "EXPERIMENTAL TARGET": "CDK2 (Homo sapiens)", "EXPERIMENTAL READOUT": "IC50", "SCALE UNIT": "µM", "RECORDED MEASUREMENT": 2.01}
{"MOLECULE": "O=S1(=O)CC2(CC(Nc3nccc(-c4sc(N5C6CCC5CN(C5CCC5)C6)nc4-c4cccc(NS(=O)(=O)c5c(F)cccc5F)c4F)n3)C2)C1 [Example 52]", "EXPERIMENTAL TARGET": "CDK2 (Homo sapiens)", "EXPERIMENTAL READOUT": "IC50", "SCALE UNIT": "µM", "RECORDED MEASUREMENT": 0.08}
{"MOLECULE": "CS(=O)(=O)[C@H]1CC[C@@H](Nc2nccc(-c3sc(C45CC(C4)C5)nc3-c3cccc(NS(=O)(=O)c4c(F)cccc4C(F)(F)F)c3F)n2)CC1 [Example 132]", "EXPERIMENTAL TARGET": "CDK2 (Homo sapiens)", "EXPERIMENTAL READOUT": "IC50", "SCALE UNIT": "µM", "RECORDED MEASUREMENT": 0.05}
{"MOLECULE": "O=S1(=O)C[C@@H]2[C@H](C1)[C@@H]2Nc1nccc(-c2sc(N3C4CCC3CN(C3CC(F)(F)C3)C4)nc2-c2cccc(NS(=O)(=O)c3c(F)cccc3C(F)(F)F)c2F)n1 [Example 108]", "EXPERIMENTAL TARGET": "CDK2 (Homo sapiens)", "EXPERIMENTAL READOUT": "IC50", "SCALE UNIT": "µM", "RECORDED MEASUREMENT": 0.1}
{"MOLECULE": "O=S1(=O)CC2(CC(Nc3nccc(-c4sc(C56CC(C5)C6)nc4-c4cccc(NS(=O)(=O)c5c(F)cccc5OC(F)F)c4F)n3)C2)C1 [Example 58]", "EXPERIMENTAL TARGET": "CDK2 (Homo sapiens)", "EXPERIMENTAL READOUT": "IC50", "SCALE UNIT": "µM", "RECORDED MEASUREMENT": 0.09}
{"MOLECULE": "O=S1(=O)C[C@H]2C[C@H](Nc3nccc(-c4sc(C56CC(C5)C6)nc4-c4cccc(NS(=O)(=O)c5c(F)cccc5F)c4F)n3)C[C@H]2C1 [Example 152]", "EXPERIMENTAL TARGET": "CDK2 (Homo sapiens)", "EXPERIMENTAL READOUT": "IC50", "SCALE UNIT": "µM", "RECORDED MEASUREMENT": 0.15}
{"MOLECULE": "O=S1(=O)CC2(CC(Nc3nccc(-c4sc(N5C6CCC5CN(C5CCOCC5)C6)nc4-c4cccc(NS(=O)(=O)c5c(F)cccc5F)c4F)n3)C2)C1 [Example 148]", "EXPERIMENTAL TARGET": "CDK2 (Homo sapiens)", "EXPERIMENTAL READOUT": "IC50", "SCALE UNIT": "µM", "RECORDED MEASUREMENT": 0.4}
{"MOLECULE": "O=S1(=O)C[C@@H]2[C@H](C1)[C@H]2Nc1nccc(-c2sc(C3(C(F)F)CC3)nc2-c2cccc(NS(=O)(=O)c3c(F)cccc3OC(F)F)c2F)n1 [Example 129]", "EXPERIMENTAL TARGET": "CDK2 (Homo sapiens)", "EXPERIMENTAL READOUT": "IC50", "SCALE UNIT": "µM", "RECORDED MEASUREMENT": 0.09}
{"MOLECULE": "O=S1(=O)CC2(CC(Nc3nccc(-c4sc(C5(C(F)F)CCC5)nc4-c4cccc(NS(=O)(=O)c5c(F)cccc5C(F)(F)F)c4F)n3)C2)C1 [Example 83]", "EXPERIMENTAL TARGET": "CDK2 (Homo sapiens)", "EXPERIMENTAL READOUT": "IC50", "SCALE UNIT": "µM", "RECORDED MEASUREMENT": 0.04}
{"MOLECULE": "C[C@H]1COC[C@H](C)N1c1nc(-c2cccc(NS(=O)(=O)c3c(F)cccc3F)c2F)c(-c2ccnc(NC3CC4(C3)CS(=O)(=O)C4)n2)s1 [Example 4]", "EXPERIMENTAL TARGET": "CDK2 (Homo sapiens)", "EXPERIMENTAL READOUT": "IC50", "SCALE UNIT": "µM", "RECORDED MEASUREMENT": 0.13}

====

The entries below are paired with their reported IC50.
biological target: CDK2 (Homo sapiens); construct: endogenous in cells; host or cells: OVCAR3 cells; experiment: Phospho-RB measurement in OVCAR3 cells (HTRF phospho-RB S807/811); assay type: cell-based; conditions: phosphorylation of RB protein at S807/811, HTRF, 24 h compound treatment, 0.3 to 10,000 nM, read-out: pRb (uM)
EXPERIMENTAL READOUT: IC50

{"MOLECULAR STRING": "O=S1(=O)C[C@@H]2[C@H](C1)[C@@H]2Nc1nccc(-c2sc(C34CC(C3)C4)nc2-c2cccc(NS(=O)(=O)c3c(F)cccc3C(F)(F)F)c2F)n1", "EXPERIMENTAL READOUT": "IC50", "RECORDED MEASUREMENT": "0.19 µM"}
{"MOLECULAR STRING": "O=S1(=O)C[C@@H]2[C@H](C1)[C@H]2Nc1nccc(-c2sc(N3C4CCC3CN(C3CC(F)(F)C3)C4)nc2-c2cccc(NS(=O)(=O)c3c(F)cccc3F)c2F)n1", "EXPERIMENTAL READOUT": "IC50", "RECORDED MEASUREMENT": "0.15 µM"}
{"MOLECULAR STRING": "O=S1(=O)CC2(CC(Nc3nccc(-c4sc(N5C6CCC5CN(C5COC5)C6)nc4-c4cccc(NS(=O)(=O)c5c(F)cccc5F)c4F)n3)C2)C1", "EXPERIMENTAL READOUT": "IC50", "RECORDED MEASUREMENT": "0.24 µM"}

====

molecular target: CDK2 (Homo sapiens); construct: endogenous in cells; host or cells: OVCAR3 cells; test: Phospho-RB measurement in OVCAR3 cells (HTRF phospho-RB S807/811); format: cell-based; conditions: phosphorylation of RB protein at S807/811, HTRF, 24 h compound treatment, 0.3 to 10,000 nM, read-out: pRb (uM)
IC50 strictly under 0.2 µM means label 1; at 0.2 µM or over means label 0.

{"COMPOUND": "O=S1(=O)C[C@@H]2[C@H](C1)[C@@H]2Nc1nccc(-c2sc(N3C4CCC3CN(C3CC(F)(F)C3)C4)nc2-c2cccc(NS(=O)(=O)c3c(F)cccc3F)c2F)n1 [Example 94]", "EXPERIMENTAL TARGET": "CDK2 (Homo sapiens)", "GROUP LABEL": "label 0"}
{"COMPOUND": "CS(=O)(=O)[C@H]1CC[C@H](Nc2nccc(-c3sc(C45CC(C4)C5)nc3-c3cccc(NS(=O)(=O)c4c(F)cccc4C(F)(F)F)c3F)n2)CC1 [Example 36]", "EXPERIMENTAL TARGET": "CDK2 (Homo sapiens)", "GROUP LABEL": "label 1"}
{"COMPOUND": "O=S1(=O)C[C@@H]2[C@H](C1)[C@H]2Nc1nccc(-c2sc(C3(C(F)F)CC3)nc2-c2cccc(NS(=O)(=O)c3c(F)cccc3C(F)(F)F)c2F)n1 [Example 128]", "EXPERIMENTAL TARGET": "CDK2 (Homo sapiens)", "GROUP LABEL": "label 1"}
{"COMPOUND": "C[C@H]1CN(C)C[C@H](C)N1c1nc(-c2cccc(NS(=O)(=O)c3c(F)cccc3C(F)(F)F)c2F)c(-c2ccnc(N[C@H]3[C@@H]4CS(=O)(=O)C[C@@H]43)n2)s1 [Example 124]", "EXPERIMENTAL TARGET": "CDK2 (Homo sapiens)", "GROUP LABEL": "label 1"}
{"COMPOUND": "CS(=O)(=O)[C@H]1CC[C@H](Nc2nccc(-c3sc(C4(C(F)(F)F)CC4)nc3-c3cccc(NS(=O)(=O)c4c(F)cccc4C(F)(F)F)c3F)n2)CC1 [Example 104]", "EXPERIMENTAL TARGET": "CDK2 (Homo sapiens)", "GROUP LABEL": "label 1"}
{"COMPOUND": "O=S1(=O)CC2(CC(Nc3nccc(-c4sc(C56CC(F)(C5)C6)nc4-c4cccc(NS(=O)(=O)c5c(F)cccc5F)c4F)n3)C2)C1 [Example 7]", "EXPERIMENTAL TARGET": "CDK2 (Homo sapiens)", "GROUP LABEL": "label 0"}
{"COMPOUND": "CC1C2(CC(Nc3nccc(-c4sc(C56CC(C5)C6)nc4-c4cccc(NS(=O)(=O)c5c(F)cccc5F)c4F)n3)C2)C(C)S1(=O)=O (stereo not shown) [Example 154]", "EXPERIMENTAL TARGET": "CDK2 (Homo sapiens)", "GROUP LABEL": "label 1"}
{"COMPOUND": "C[C@@H]1COC[C@@H](C)N1c1nc(-c2cccc(NS(=O)(=O)c3c(F)cccc3F)c2F)c(-c2ccnc(NC3CC4(C3)CS(=O)(=O)C4)n2)s1 [Example 56]", "EXPERIMENTAL TARGET": "CDK2 (Homo sapiens)", "GROUP LABEL": "label 1"}
{"COMPOUND": "CN1CC2CCC(C1)N2c1nc(-c2cccc(NS(=O)(=O)c3c(F)cccc3C(F)(F)F)c2F)c(-c2ccnc(NC3[C@H]4CS(=O)(=O)C[C@@H]34)n2)s1 (stereo partly shown) [Example 111]", "EXPERIMENTAL TARGET": "CDK2 (Homo sapiens)", "GROUP LABEL": "label 1"}
{"COMPOUND": "O=S1(=O)CC2(CC(Nc3nccc(-c4sc(C5(C(F)(F)F)CC5)nc4-c4cccc(NS(=O)(=O)c5c(F)cccc5C(F)(F)F)c4F)n3)C2)C1 [Example 85]", "EXPERIMENTAL TARGET": "CDK2 (Homo sapiens)", "GROUP LABEL": "label 1"}
{"COMPOUND": "CS(=O)(=O)[C@H]1CC[C@H](Nc2nccc(-c3sc(C4(C(F)(F)F)CC4)nc3-c3cccc(NS(=O)(=O)c4c(Cl)cccc4C(F)(F)F)c3F)n2)CC1 [Example 133]", "EXPERIMENTAL TARGET": "CDK2 (Homo sapiens)", "GROUP LABEL": "label 1"}
{"COMPOUND": "O=S1(=O)CC2(CC(Nc3nccc(-c4sc(C5(C(F)(F)F)CC5)nc4-c4cccc(NS(=O)(=O)c5c(F)cccc5F)c4F)n3)C2)C1 [Example 89]", "EXPERIMENTAL TARGET": "CDK2 (Homo sapiens)", "GROUP LABEL": "label 1"}
{"COMPOUND": "O=S1(=O)CC2(CC(Nc3nccc(-c4sc(N5CC6CCC(CC6)C5)nc4-c4cccc(NS(=O)(=O)c5c(F)cccc5F)c4F)n3)C2)C1 [Example 21]", "EXPERIMENTAL TARGET": "CDK2 (Homo sapiens)", "GROUP LABEL": "label 0"}
{"COMPOUND": "O=S1(=O)CC2(CC(Nc3nccc(-c4sc(C56CC(Cl)(C5)C6)nc4-c4cccc(NS(=O)(=O)c5c(F)cccc5C(F)(F)F)c4F)n3)C2)C1 [Example 150]", "EXPERIMENTAL TARGET": "CDK2 (Homo sapiens)", "GROUP LABEL": "label 1"}
{"COMPOUND": "O=S1(=O)CC2(CC(Nc3nccc(-c4sc(C56CCC(C5)C6)nc4-c4cccc(NS(=O)(=O)c5c(F)cccc5F)c4F)n3)C2)C1 [Example 20]", "EXPERIMENTAL TARGET": "CDK2 (Homo sapiens)", "GROUP LABEL": "label 0"}
{"COMPOUND": "O=S1(=O)CC2(CC(Nc3nccc(-c4sc(N5C6CCC5CN(Cc5ccccc5)C6)nc4-c4cccc(NS(=O)(=O)c5c(F)cccc5F)c4F)n3)C2)C1 [Example 40]", "EXPERIMENTAL TARGET": "CDK2 (Homo sapiens)", "GROUP LABEL": "label 0"}
